Molecular target: UniProt:P08913
Sequence (whole entry): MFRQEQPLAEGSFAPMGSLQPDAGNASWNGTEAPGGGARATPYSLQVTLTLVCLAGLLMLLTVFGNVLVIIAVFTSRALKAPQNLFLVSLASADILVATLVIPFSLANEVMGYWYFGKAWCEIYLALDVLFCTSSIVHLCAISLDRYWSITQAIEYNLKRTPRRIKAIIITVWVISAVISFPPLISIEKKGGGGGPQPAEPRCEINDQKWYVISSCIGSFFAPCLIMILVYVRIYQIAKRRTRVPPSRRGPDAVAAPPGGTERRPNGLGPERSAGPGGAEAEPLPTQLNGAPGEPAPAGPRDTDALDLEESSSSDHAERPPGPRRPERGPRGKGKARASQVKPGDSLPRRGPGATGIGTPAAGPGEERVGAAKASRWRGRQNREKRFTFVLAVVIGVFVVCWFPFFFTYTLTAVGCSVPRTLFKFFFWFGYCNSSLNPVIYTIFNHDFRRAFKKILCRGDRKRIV
Test: Binding affinity to alpha 2a adrenergic receptor (unknown origin) at 1 uM relative to control
Active and inactive are the calls of the source. The rule behind the calls is not given here.
test_readout: Activity

COC1Cc2ccccc2[C@]2(CC[C@H](N(C)CC3CCCCC3)CC2)O1 (some centres undefined)
93%
COC1Cc2ccccc2[C@]2(CC[C@@H](N(C)Cc3ccccc3)CC2)O1 (some centres undefined)
inactive
COC1Cc2ccccc2[C@]2(CC[C@@H](N(C)CC3CCCCC3)CC2)O1 (some centres undefined)
inactive
COC1Cc2ccccc2[C@]2(CC[C@H](N(C)Cc3ccccc3)CC2)O1 (some centres undefined)
inactive
